All values here come from patent EP2272817A1.

Reported values of inhibition at 0.1 µM for individual entries
# Tgt: recombinant human PAI-1 (Homo sapiens)
# Sequence (P05121 24-402): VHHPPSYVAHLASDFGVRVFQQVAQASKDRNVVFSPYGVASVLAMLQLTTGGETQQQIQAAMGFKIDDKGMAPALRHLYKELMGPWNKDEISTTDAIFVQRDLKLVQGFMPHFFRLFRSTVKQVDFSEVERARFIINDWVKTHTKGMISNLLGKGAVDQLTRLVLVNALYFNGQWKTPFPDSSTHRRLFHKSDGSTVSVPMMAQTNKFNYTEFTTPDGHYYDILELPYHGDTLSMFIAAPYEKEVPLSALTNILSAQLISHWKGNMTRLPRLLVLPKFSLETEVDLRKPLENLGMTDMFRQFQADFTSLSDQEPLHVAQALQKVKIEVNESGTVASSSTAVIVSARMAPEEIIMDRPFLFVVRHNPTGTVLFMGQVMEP
# Test: Test Example 2: Human PAI-1 Inhibitory Activity (pH 7.4 HEPES buffer, 10 minutes incubation with two-chain tPA)
# Format: biochemical
# Design: purchased Molecular Innovations, Inc
# Conditions Used: read-out: Inhibition Rate of PAI-1 Activity (%)
Field note: include the unit after the figure.

Below are worked cases with known answers.
O=C(O)/C=C/c1ccc(-c2ccc(OC(F)(F)F)cc2)cc1OCCCSc1ccccc1 [Compound 489]	12%
COc1cc(OC)c(N(Cc2ccc(C(C)(C)C)cc2)C(=O)C(=O)O)cc1-c1ccc(OC(F)(F)F)cc1 [Compound 190]	2%

Item under review: CC(C)(C)c1cccc(Oc2ccc(-c3ccc(OC(F)(F)F)cc3)cc2CCC(=O)O)c1 [Compound 438] . Reported inhibition at 0.1 µM?
13%
